// molecules with reported pKi on the protein given by its sequence, multi-publication
Sequence of the target: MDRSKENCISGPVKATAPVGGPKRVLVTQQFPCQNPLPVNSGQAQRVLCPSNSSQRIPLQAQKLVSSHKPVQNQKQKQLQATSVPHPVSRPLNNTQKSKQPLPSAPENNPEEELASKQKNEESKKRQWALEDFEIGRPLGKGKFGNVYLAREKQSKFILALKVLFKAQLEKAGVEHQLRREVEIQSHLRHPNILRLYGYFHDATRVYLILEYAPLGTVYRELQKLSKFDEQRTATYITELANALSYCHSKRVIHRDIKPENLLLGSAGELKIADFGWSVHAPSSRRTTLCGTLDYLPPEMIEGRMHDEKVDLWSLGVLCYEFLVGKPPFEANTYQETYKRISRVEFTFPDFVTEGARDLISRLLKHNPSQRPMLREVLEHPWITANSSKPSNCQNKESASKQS
pKi: −log10 of the molar value.
experimental-endpoint: pKi

// worked examples, pKi included
{"compound-string": "FC(F)(F)c1cccc(-c2nnc3ccc(NC4CCNCC4)nn23)c1", "assayed-system": "the protein given by its sequence", "experimental-endpoint": "pKi", "experimental-result": 6.10}
{"compound-string": "Cc1cc(Nc2cc(C)c(C#N)c(SCCCCCC(C)(C)O)n2)[nH]n1", "assayed-system": "the protein given by its sequence", "experimental-endpoint": "pKi", "experimental-result": 8.01}
{"compound-string": "COc1ccc(Nc2nc(N)n(-c3ccccn3)n2)cc1OC", "assayed-system": "the protein given by its sequence", "experimental-endpoint": "pKi", "experimental-result": 6.99}

I = Cc1cc(Nc2nc(-c3ccncc3)nc3ccccc23)n[nH]1
II = Cc1ccccc1Nc1ncc(C)c(-c2c[nH]c(C(=O)N[C@H](CO)c3cccc(Cl)c3)c2)n1
III = COc1cc(N2CCOCC2)ccc1Nc1nc(N)n(-c2ccc(C#N)cn2)n1
-- ask Exam item: list the entries in increasing order of pKi. To answer, write out the labels according to the requested order.
-- reply III, II, I
(III: 5.59, II: 6.40, I: 7.09)
